- Tested on: Alopecurus myosuroides (ALOMY)
- assay.text: Post-emergence herbicidal activity, glasshouse pot test
- Format: in vivo
- details: Alopecurus myosuroides, 312 h, rate 250 g/ha, evaluated after 13 days, glasshouse, read-out: Post-emergence activity ALOMY (100=total damage to plant; 0=no damage to plant)
recorded.endpoint: pest or weed control at 250 g/ha (%)
Return type: number; implicit unit %.

Worked examples, 5 compounds total:
1. CCc1ccc(Oc2ccc(Cl)cc2F)cc1C1=C(O)CC(C)(C)CC1=O ... 70
2. CCc1ccc(Oc2ncc(C(F)(F)F)cc2C(F)(F)F)cc1C1=C(O)CC2(CCOCC2)CC1=O ... 90
3. CCc1ccc(Oc2ccc(Br)cc2[N+](=O)[O-])cc1C1=C(O)C(C)(C)OC(C)(C)C1=O ... 70
4. CCc1ccc(Oc2cnc3ccccc3n2)cc1C1=C(O)CC(C)(C)CC1=O ... 100
5. CCc1ccc(Oc2ccc(Cl)cc2Cl)cc1C1=C(O)CC(C)(C)CC1=O ... 60

# query: pest or weed control at 250 g/ha | item CCc1ccc(Oc2nc3c(Cl)cc(Cl)cc3s2)cc1C1=C(O)C(C)(C)OC(C)(C)C1=O | system: Alopecurus myosuroides (ALOMY)
80

Next record, please: CCc1ccc(Oc2cc(Cl)ncn2)cc1C1=C(O)C(C)(C)OC(C)(C)C1=O
70

And then CCc1ccc(Oc2ccc(C(F)(F)F)cn2)cc1C1=C(O)CC(C)(C)CC1=O , what is it?
90

---

- System: Echinochloa crus-galli (ECHCG)
- assay.text: Pre-emergence herbicidal activity, glasshouse pot test
- Format: in vivo
- details: Echinochloa crus-galli, 312 h; Rate 250 g/ha; pre-emergence spray; evaluated after 13 days; read-out: Pre-emergence activity ECHCG (100=total damage to plant; 0=no damage to plant)
recorded.endpoint: pest or weed control at 250 g/ha (%)
Give just the number in %; leave the unit off.

Record excerpt, results attached:
1) CCc1ccc(Oc2ncc(Cl)cc2Cl)cc1C1=C(O)[C@@H]2CC[C@](C)(C1=O)C2(C)C [Example A-318] ... 100
2) CCc1ccc(Oc2cc(F)cc(F)n2)cc1C1=C(O)C(C)(C)OC(C)(C)C1=O [Example A-156] ... 60
3) CCc1ccc(Oc2ncc(Br)cn2)cc1C1=C(O)C(C)(C)OC(C)(C)C1=O [Example A-109] ... 100
4) CCc1ccc(Oc2ncc(C(F)(F)F)cc2Cl)cc1C1=C(O)[C@@H]2CC[C@](C)(C1=O)C2(C)C [Example A-317] ... 100
5) CCc1ccc(Oc2ncc(C(F)(F)F)cc2F)cc1C1=C(O)CC2(CCOCC2)CC1=O [Example A-273] ... 100

Now for another entry.
Given CCc1ccc(Oc2ccc(Br)cc2)cc1C1=C(O)C(C)(C)OC(C)(C)C1=O [Example A-8] , state its recorded pest or weed control at 250 g/ha.
100

---

- Test system: Alopecurus myosuroides (ALOMY)
- assay.text: Post-emergence herbicidal activity, glasshouse pot test
- Type: in vivo
- details: Alopecurus myosuroides, 312 h, rate 250 g/ha, evaluated after 13 days, glasshouse, read-out: Post-emergence activity ALOMY (100=total damage to plant; 0=no damage to plant)
recorded.endpoint: pest or weed control at 250 g/ha
Give the value; after it, write the unit.

For orientation, consider the following solved cases.
1) CCc1ccc(Oc2nc3ccc(OC)cc3s2)cc1C1=C(O)[C@H]2CC[C@H](C2)C1=O ... 50%
2) CCc1ccc(Oc2ccc(Br)cc2C#N)cc1C1=C(O)C(C)(C)OC(C)(C)C1=O ... 60%
3) CCc1ccc(Oc2cc(C(F)(F)F)cc(Cl)n2)cc1C1=C(O)C(C)(C)OC(C)(C)C1=O ... 30%
4) CCc1ccc(Oc2cc(F)ccc2C#N)cc1C1=C(O)C(C)(C)OC(C)(C)C1=O ... 80%

Next up:
Suppose we examine the compound CCc1ccc(Oc2ncc(Cl)cc2Cl)cc1C1=C(O)[C@@H]2CC[C@](C)(C1=O)C2(C)C ; what pest or weed control at 250 g/ha value has been reported?
90%

---

- Tested on: Alopecurus myosuroides (ALOMY)
- assay.text: Pre-emergence herbicidal activity, glasshouse pot test
- Assay type: in vivo
- details: Alopecurus myosuroides, 312 h; Rate 250 g/ha; pre-emergence spray; evaluated after 13 days; read-out: Pre-emergence activity ALOMY (100=total damage to plant; 0=no damage to plant)
- Experimental: Seeds of a variety of test species were sown in standard soil in pots. […] After 13 days for pre and post-emergence, the test was evaluated (100=total damage to plant; 0=no damage to plant). […]
We label by threshold. Values of pest or weed control at 250 g/ha strictly beneath 60% are t. Values of 60% and up are f.

1) CCc1ccc(Oc2ncc(Cl)cc2Cl)cc1C1=C(O)C(C)(C)OC(C)(C)C1=O ... f
2) CCc1ccc(Oc2nc(C(F)(F)F)c(C#N)s2)cc1C1=C(O)C(C)(C)OC(C)(C)C1=O ... t
3) CCc1ccc(Oc2ccc([N+](=O)[O-])cc2Cl)cc1C1=C(O)C(C)(C)OC(C)(C)C1=O ... t

For this compound, is pest or weed control at 250 g/ha lower than 60%? CCc1ccc(Oc2ccc(Cl)cc2)cc1C1=C(O)[C@H]2CC[C@H](C2)C1=O (single isomer, unassigned)
f

Same read-out for CCc1ccc(Oc2ccc([N+](=O)[O-])cc2F)cc1C1=C(O)C(C)(C)OC(C)(C)C1=O ?
t

Try the compound CCc1ccc(Oc2ccc(Cl)cn2)cc1C1=C(O)CC(C)(C)CC1=O
f

---

Reported pest or weed control at 250 g/ha values are given for each entry in this list.
- Test system: Echinochloa crus-galli (ECHCG)
- assay.text: Pre-emergence herbicidal activity, glasshouse pot test
- Format: in vivo
- details: Echinochloa crus-galli, 312 h; Rate 250 g/ha; pre-emergence spray; evaluated after 13 days; read-out: Pre-emergence activity ECHCG (100=total damage to plant; 0=no damage to plant)
Kindly format the answer as number then unit.

Below: 4 molecules and their reported pest or weed control at 250 g/ha.
1) CCc1ccc(Oc2ccc(F)c(C(F)(F)F)c2)cc1C1=C(O)C(C)(C)OC(C)(C)C1=O [Example A-178] ... 10%
2) CCc1ccc(Oc2ccc(C(F)(F)F)cc2Cl)cc1C1=C(O)[C@@H]2CC[C@](C)(C1=O)C2(C)C [Example A-314] ... 100%
3) CCc1ccc(Oc2ccc(F)cc2F)cc1C1=C(O)C(C)(C)OC(C)(C)C1=O [Example A-14] ... 0%
4) CCc1ccc(Oc2nc3ccc(C(F)(F)F)cc3s2)cc1C1=C(O)C(C)(C)OC(C)(C)C1=O [Example A-219] ... 90%

// query pest or weed control at 250 g/ha value for entry CCc1ccc(Oc2ccc(Br)cc2)cc1C1=C(O)CC(C)(C)CC1=O [Example A-48]
100%

Entry to check: CCc1ccc(Oc2ccc(F)cc2Cl)cc1C1=C(O)C(C)(C)OC(C)(C)C1=O [Example A-33]
90%

Follow-up entry: CCc1ccc(Oc2ccc(C#N)c(Cl)c2)cc1C1=C(O)C(C)(C)OC(C)(C)C1=O [Example A-75]
100%

// query: CCc1ccc(Oc2nc3cc(Cl)ccc3s2)cc1C1=C(O)CC2(CCOCC2)CC1=O [Example A-308]
100%

---

- System: Echinochloa crus-galli (ECHCG)
- assay.text: Pre-emergence herbicidal activity, glasshouse pot test
- Type: in vivo
- details: Echinochloa crus-galli, 312 h; Rate 250 g/ha; pre-emergence spray; evaluated after 13 days; read-out: Pre-emergence activity ECHCG (100=total damage to plant; 0=no damage to plant)
Below is a list of entries, each paired with its recorded pest or weed control at 250 g/ha value.
Please reply with the bare figure in % and do not write the unit itself.

Worked examples follow.
1) CCc1ccc(Oc2nc3ccc(OC)cc3s2)cc1C1=C(O)CC2(CCOCC2)CC1=O ... 100
2) CCc1ccc(Oc2nc3ccc(Cl)cc3s2)cc1C1=C(O)C(C)(C)OC(C)(C)C1=O ... 90

Give its pest or weed control at 250 g/ha value. Item: CC1(C)OC(C)(C)C(O)=C(c2cc(Oc3ccc(Cl)cc3Cl)ccc2C2CC2)C1=O
70

Can you handle CCc1ccc(Oc2cnc3ccc(Br)cc3n2)cc1C1=C(O)CC(C)(C)CC1=O next?
100

Repeat with CCc1ccc(Oc2ccc(C(F)(F)F)cc2Br)cc1C1=C(O)CC(C)(C)CC1=O
100

# iterate: CCc1ccc(Oc2ncc(Cl)cc2F)cc1C1=C(O)CC(C)(C)CC1=O
100

// next record CCc1ccc(Oc2ccc(C(F)(F)F)c(Cl)c2)cc1C1=C(O)[C@@H]2CC[C@](C)(C1=O)C2(C)C
100

Cool, now CCc1ccc(Oc2ncc(C(F)(F)F)cc2F)cc1C1=C(O)CC(C)(C)CC1=O
100
